Where these numbers come from: the supplement of paper PMC10065799

test system: c-Src; assay: phosphorylation enrichment, bacterial display (enrichment ratio); higher = better substrate or ligand; peptides without Tyr show the background;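 also: 11-residue human phosphosite peptides and single-mutation variants displayed on the E. coli surface, counted by deep sequencing, each peptide's frequency after selection divided by its frequency in the unselected input library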;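 also: frequency after pTyr selection over input frequency; kinase dosed for 20-30% of maximal phosphorylation in three min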
Please enter 1 where phosphorylation enrichment is greater than or equal to 0.5, and -1 where it is lower.

Example results:
1) KASRKYFAMKI [AKT3_Y173_G171R_YF]
-1
2) YSTSPYLLEAA [BRIP1_Y921]
1
3) GKAFIYASHIV [ZNF573_Y229]
1
4) LLTALYFISWG [KCNH2_Y780_R784W]
1
5) FLAVGYHQPHI [IDS_Y225_K227Q]
-1
6) FIGRIYLYLTK [GARS1_Y414]
-1

Lookup: In plain terms: is recorded phosphorylation enrichment at least 0.5 for SKNSKYNAGST [PSEN1_Y315_E318G] ?
Found: 1

Lookup: Given KHMADYPDCKY [SOX11_Y113_Y116C] , state whether its phosphorylation enrichment is at least 0.5.
Found: -1

Lookup: API: above_or_equal(metric=phosphorylation enrichment, cutoff=0.5) for item YGLPRYRWLTH [TSPAN12_Y143]
Found: -1
